yeast fitness values for the variants below.
B1: tRNA (parent)
chain: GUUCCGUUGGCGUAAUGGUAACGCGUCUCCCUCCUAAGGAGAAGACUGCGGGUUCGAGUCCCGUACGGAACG

# Variants of: B1
# testMethodNotes: yeast fitness relative to wild type (ratio to wild type); higher = fitter; tRNA-Arg(CCU), competitive growth, 37 C, YPD
This sample holds only a part of the variants without activity.
metricName: yeast fitness

variantDescriptor: U8G G17A G56C
metricName: yeast fitness
dataValue: ≤ 0.5
//
variantDescriptor: U3G U13C C33A A42U C49U C55A
metricName: yeast fitness
dataValue: ≤ 0.5
//
variantDescriptor: G10C A36U A69U
metricName: yeast fitness
dataValue: ≤ 0.5
//
variantDescriptor: C22U A37C G41C
metricName: yeast fitness
dataValue: ≤ 0.5
//
variantDescriptor: G6C C46U A57C
metricName: yeast fitness
dataValue: ≤ 0.5
//
variantDescriptor: A36U G56C A65C
metricName: yeast fitness
dataValue: ≤ 0.5
//
variantDescriptor: A36U A45U U53A C62A
metricName: yeast fitness
dataValue: ≤ 0.5
//
variantDescriptor: A14G U26G G39A
metricName: yeast fitness
dataValue: ≤ 0.5
//
variantDescriptor: C4A C30G C31U C55A C61G G67A
metricName: yeast fitness
dataValue: ≤ 0.5
//
variantDescriptor: C4U C49A A57C A69U
metricName: yeast fitness
dataValue: ≤ 0.5
//
variantDescriptor: C11U C27G A36G G63C C66U
metricName: yeast fitness
dataValue: ≤ 0.5
//
variantDescriptor: U32G A45G U47C C49U A70U
metricName: yeast fitness
dataValue: ≤ 0.5
//
variantDescriptor: C5A A14G C24G C31U A43G
metricName: yeast fitness
dataValue: ≤ 0.5
//
variantDescriptor: G10C A37C C60G
metricName: yeast fitness
dataValue: ≤ 0.5
//
variantDescriptor: U16A A20G C29G C30U A40U A70G
metricName: yeast fitness
dataValue: ≤ 0.5
//
variantDescriptor: G6A A14G C24A C31U A40U A70G
metricName: yeast fitness
dataValue: ≤ 0.5
//
variantDescriptor: U8G A21U C27G A65C
metricName: yeast fitness
dataValue: ≤ 0.5
//
variantDescriptor: G17C U35A
metricName: yeast fitness
dataValue: ≤ 0.5
//
variantDescriptor: A21C C27U A45C C49U
metricName: yeast fitness
dataValue: ≤ 0.5
//
variantDescriptor: C11U A15U G52A C61G
metricName: yeast fitness
dataValue: ≤ 0.5
//
variantDescriptor: A21G C61G C66G
metricName: yeast fitness
dataValue: ≤ 0.5
//
variantDescriptor: C4A A21U G52A
metricName: yeast fitness
dataValue: ≤ 0.5
//
variantDescriptor: G9A C24A A36C A37G C49A
metricName: yeast fitness
dataValue: ≤ 0.5
//
variantDescriptor: C4A C24G C33G G63C
metricName: yeast fitness
dataValue: ≤ 0.5
//
variantDescriptor: G17C A20G C46A C60U
metricName: yeast fitness
dataValue: ≤ 0.5
//
variantDescriptor: U3G A14C C24G C60U U64A
metricName: yeast fitness
dataValue: ≤ 0.5
//
variantDescriptor: G6A G9A C29U C46U G67C
metricName: yeast fitness
dataValue: ≤ 0.5
//
variantDescriptor: C4G U8C G18C A21C C55U
metricName: yeast fitness
dataValue: ≤ 0.5
//
variantDescriptor: C30A C66A
metricName: yeast fitness
dataValue: 0.636
//
variantDescriptor: G12C G41C C46U
metricName: yeast fitness
dataValue: 0.596
//
variantDescriptor: G17A U32C
metricName: yeast fitness
dataValue: 0.704
//
variantDescriptor: G6A C11A A40G G56C
metricName: yeast fitness
dataValue: ≤ 0.5
//
variantDescriptor: G10C U28G G39A C49A
metricName: yeast fitness
dataValue: ≤ 0.5
//
variantDescriptor: U32C A37U
metricName: yeast fitness
dataValue: 0.729
//
variantDescriptor: C29A G39A C49A C66G
metricName: yeast fitness
dataValue: ≤ 0.5
//
variantDescriptor: U19G C22U C49U C62A
metricName: yeast fitness
dataValue: ≤ 0.5
//
variantDescriptor: C11U U16C U28C A43C
metricName: yeast fitness
dataValue: ≤ 0.5
//
variantDescriptor: U19G A43C
metricName: yeast fitness
dataValue: 0.971
//
variantDescriptor: C55A C61U G68A A70G
metricName: yeast fitness
dataValue: ≤ 0.5
//
variantDescriptor: U3C G63A
metricName: yeast fitness
dataValue: 0.909
//
variantDescriptor: G23C A37G C66A
metricName: yeast fitness
dataValue: ≤ 0.5
//
variantDescriptor: U53C G58C
metricName: yeast fitness
dataValue: 0.977
//
variantDescriptor: C31U A65C
metricName: yeast fitness
dataValue: 0.926
//
variantDescriptor: U2A G25A A70U
metricName: yeast fitness
dataValue: 0.695
//
variantDescriptor: A15G A20U C34A
metricName: yeast fitness
dataValue: ≤ 0.5
//
variantDescriptor: U3A C11G G12A C22U
metricName: yeast fitness
dataValue: ≤ 0.5
//
variantDescriptor: U2G G9C A20G A42C C46G C49U C66U A69C
metricName: yeast fitness
dataValue: ≤ 0.5
//
variantDescriptor: G9A G23C U59A
metricName: yeast fitness
dataValue: ≤ 0.5
//
variantDescriptor: A45C U53A C60G
metricName: yeast fitness
dataValue: 0.536
//
variantDescriptor: U26G G39C A45G A57C C61G
metricName: yeast fitness
dataValue: 0.592
//
variantDescriptor: G17C C24A A45C
metricName: yeast fitness
dataValue: 0.508
//
variantDescriptor: A36C A69U
metricName: yeast fitness
dataValue: 0.63
